experiment: photoluminescence quantum yield (fraction); solvent given as SMILES; conditions: in CO
One threshold, 0.09, splits the recorded photoluminescence quantum yield values: lower ones are Condition met, equal or higher ones are Condition not met.

[in] Take the compound COC(=O)c1ccc(O)c(-c2[nH]c(=O)n3c2-c2ccccc2C3=O)c1 and say whether its photoluminescence quantum yield is less than 0.09.
[out] Condition not met

[in] Item: COC(=O)C(Cc1ccc2oc(-c3ccc(N(C)C)cc3)nc2c1)NC(=O)OC(C)(C)C (stereo not given)
[out] Condition not met

[in] Item: C[Si](C)(C)c1ccc2ccc3c([Si](C)(C)C)ccc4ccc1c2c43
[out] Condition not met

[in] Item: O=C(O)C1=C/C(=C/C=[N+]2/c3cc(O)c(C[C@@H]4O[C@H](CO)[C@@H](O)C(O)[C@H]4O)cc3C[C@H]2C(=O)O)C[C@H](C(=O)O)N1 (stereo not given in full)
[out] Condition met

[in] Item: C(C1=[NH+]c2cccc3cccc1c23)=c1[nH]c2cccc3cccc1c32
[out] Condition met

[in] Item: C(/C=C/c1cc2c3c(c1)CCCN3CCC2)=C\c1ccncc1
[out] Condition met

[in] Item: c1ccc(Nc2nc(Nc3ccccc3)nc(Nc3cc4ccc5cccc6ccc(c3)c4c56)n2)cc1
[out] Condition not met

[in] Item: O=C([O-])c1c(Cl)c(Cl)c(Cl)c(Cl)c1-c1c2cc(I)c(=O)c(I)c-2oc2c(I)c([O-])c(I)cc12
[out] Condition met

[in] Item: CCNc1ccc2c(C(F)(F)F)cc(=O)oc2c1
[out] Condition not met

[in] Item: C/C(=C\c1ccccc1)c1nc2ccccc2o1
[out] Condition met

[in] Item: Nc1ccc2c3c(cccc13)C(=O)c1ccccc1-2
[out] Condition met

[in] Item: Cc1ccccc1C1=C2C=c3c(oc4ccccc34)=[N+]2[B-](F)(F)n2c1cc1c3ccccc3oc12
[out] Condition not met

[in] Item: Oc1ccc2ccccc2c1C1Nc2cccc3cccc(c23)N1
[out] Condition met

[in] Item: COc1ccc(/C=C/c2nc3ccccc3s2)cc1
[out] Condition met

[in] Item: COc1ccc(-c2cc3c(o2)=CC2=C(C(F)(F)F)c4cc5oc(-c6ccc(OC)cc6)cc5n4[B-](F)(F)[N+]=32)cc1
[out] Condition not met

[in] Item: CCCN1/C(=C/C=C(/C=C/c2sc3ccccc3[n+]2CCC)c2ccc([N+](=O)[O-])cc2)Sc2ccccc21
[out] Condition met

[in] Item: CCOC(=O)/C(C#N)=C/c1cc2c3ccccc3n(C)c2cc1OC
[out] Condition met

[in] Item: CCC1=C(C)C(=O)n2c1cc1c(C)cc(C)n1c2=O
[out] Condition not met

[in] Item: CC1(C)C(/C=C/C2=C(Oc3ccc(CCN=C=S)cc3Br)C(=C/C=C3/N(CCCS(=O)(=O)[O-])c4ccccc4C3(C)C)/CCC2)=[N+](CCCS(=O)(=O)[O-])c2ccccc21
[out] Condition not met

---

So I've got a bunch of molecules here, and I need their photoluminescence quantum yield values.
assay: photoluminescence quantum yield (fraction); solvent given as SMILES; conditions: in CCCCOCCCC
Give a plain numeric answer without units written out.

[in] // photoluminescence quantum yield lookup, key: Cn1cccc1-c1ccc(C#N)cc1
[out] 1

[in] Item: COc1nc(Cl)nc(Nc2ccc3c4cccc5cccc(c6cccc2c63)c54)n1
[out] 0.37

[in] Item: Nc1ccc2c3c(cccc13)C(=O)c1ccccc1-2
[out] 0.34

[in] Item: O=C1NC(=O)c2c1c1c3ccccc3[nH]c1c1[nH]c3ccccc3c21
[out] 0.28

[in] Item: COc1ccc(C2=C3C(C)=CC(C)=[N+]3[B-](F)(F)n3c(/C=C/c4ccc(N(C)C)cc4)cc(C)c32)cc1
[out] 0.91

[in] Item: c1ccc(Nc2nc(Nc3ccccc3)nc(Nc3cc4ccc5cccc6ccc(c3)c4c56)n2)cc1
[out] 0.21

[in] Item: CC(=O)Nc1ccc2c3cccc4cccc(c5cccc1c52)c43
[out] 0.46

[in] Item: COc1nc(Nc2ccc3cc4ccccc4cc3c2)nc(OC)n1
[out] 0.39

---

So I've got a bunch of molecules here, and I need their photoluminescence quantum yield values.
assay: photoluminescence quantum yield (fraction); solvent given as SMILES; details: in C1CCOC1
Give a plain numeric answer without units written out.

[in] // photoluminescence quantum yield lookup, key: NS(=O)(=O)c1ccc(N2N=C(c3ccc(O)cc3)CC2c2ccc(Br)cc2)cc1 (stereo not drawn)
[out] 0.7

[in] Item: CCOC(=O)COc1ccc(/C=C/C2=C3c4ccccc4C(c4[nH]c(C)cc4C)=[N+]3[B-](F)(F)n3c(C)cc(C)c32)cc1
[out] 0.012

[in] Item: CC(O)CC1=N/C(=C\c2cccc(N(C)C)c2)C(=O)N1C (stereo not drawn)
[out] 0.11

[in] Item: c1cc2ccc3cc4[nH]c(-c5cc6c(cc7ccc8cccc9ccc6c7c89)[nH]5)cc4c4ccc(c1)c2c34
[out] 0.5

[in] Item: F[B-]1(F)n2c(c3cccc4cccc2c43)=Nc2sc3ccccc3[n+]21
[out] 0.89

[in] Item: COc1ccc(-c2cc3ccccc3p2-c2ccccc2)cc1 (stereo not drawn)
[out] 0.09

[in] Item: O=S(=O)([O-])c1ccccc1/C=C/c1ccc(-c2nnc(-c3ccc(/C=C/c4ccccc4S(=O)(=O)[O-])cc3)o2)cc1
[out] 0.22

[in] Item: CC(=O)Nc1ccc(O)cc1
[out] 0.0031

[in] Item: CC(C)(C)c1ccc2oc(-c3ccc(-c4nc5cc(C(C)(C)C)ccc5o4)s3)nc2c1
[out] 0.78

[in] Item: Cc1ccc(/C=C/C(F)(F)F)c(N)c1
[out] 0.62

[in] Item: CCCCCCCCCCCCN1C(=O)c2cccc3c(N(Cc4ccccn4)Cc4ccccn4)c4ccccc4c(c23)C1=O
[out] 0.07

[in] Item: O=C1NC(=O)c2c1c1c3ccccc3[nH]c1c1[nH]c3ccccc3c21
[out] 0.44

[in] Item: F[Si](c1ccccc1)(c1ccccc1)c1cccc2ccccc12
[out] 0.14

[in] Item: COC(=O)C(Cc1ccc2oc(-c3ccc(N(C)C)cc3)nc2c1)NC(=O)OC(C)(C)C (stereo not drawn)
[out] 0.88

[in] Item: CC1(C)c2cc(C#N)ccc2-c2ccc(N3c4ccccc4Oc4ccccc43)cc21
[out] 0.08

[in] Item: O=P1(c2ccccc2)C(c2cc(C(F)(F)F)cc(C(F)(F)F)c2)=Cc2c3ccc4cccc5ccc(c6cc(-c7ccc(N(c8ccccc8)c8ccccc8)cc7)n1c26)c3c45 (stereo not drawn)
[out] 0.17

[in] Item: COc1cc(/C=C/c2ccncc2)c(OC)cc1C=O
[out] 0.11

[in] Item: FC(F)(F)c1ccc(C2=CC3=c4cc(-c5ccc(C(F)(F)F)cc5)c5nc(C(F)(F)C(F)(F)C(F)(F)F)nc6c(-c7ccc(C(F)(F)F)cc7)cc(c4c65)C4=CC(c5ccc(C(F)(F)F)cc5)=C5N=C(C(F)(F)C(F)(F)C(F)(F)F)N=C2C5C43)cc1 (stereo not drawn)
[out] 0.96

[in] Item: CCCN(c1ccccc1)c1ccc2c(c1)C(CC)(CC)c1cc(/C=C/c3ccc(/C=C(\C#N)C(=O)O)s3)ccc1-2
[out] 0.355

[in] Item: c1ccc(/C(=C(\c2ccccc2)c2cc(-c3ccc(-c4ccccc4)cc3)ccc2-c2ccc(-c3ccccc3)cc2)c2cc(-c3ccc(-c4ccccc4)cc3)ccc2-c2ccc(-c3ccccc3)cc2)cc1
[out] 0.32

[in] Item: CCOC(=O)/C(C#N)=C\c1ccc2c(c1)c1ccccc1n2-c1ccc(OC)cc1
[out] 0.13

[in] Item: COc1cc(OC)cc(C2=C3C(C)=C(I)C(C)=[N+]3[B-](F)(F)n3c(/C=C/c4c[nH]c5ccccc45)c(I)c(C)c32)c1
[out] 0.2

[in] Item: CCCCCCc1ccsc1-c1ccc2c(c1)C1=[N+]3C2=Cc2c4ccc(-c5sccc5CCCCCC)cc4c4n2[B-]3(Oc2ccccc21)Oc1ccccc1-4 (stereo not drawn)
[out] 0

[in] Item: CC1=N/C(=C\c2ccc(N(C)C)cc2)C(=O)N1C
[out] 0.0004

[in] Item: COc1ccc(-c2nc(C)cc(-c3ccc(-n4c5ccccc5c5ccccc54)cc3)n2)cc1
[out] 0.47

[in] Item: CN(C)c1ccc(/C=C/C=C2\CC/C(=C\c3ccc(N(C)C)cc3)C2=O)cc1
[out] 0.16

[in] Item: CCCCCCCCC1(CCCCCCCC)c2cc3c(cc2-c2sc(-c4ccc(/C=C5\SC(SCC)=NC5=O)c5nsnc45)cc21)C(CCCCCCCC)(CCCCCCCC)c1cc(-c2ccc(/C=C4\SC(SCC)=NC4=O)c4nsnc24)sc1-3
[out] 0.053

[in] Item: CCOC(=O)C1=CN(Cc2ccccc2)C=C(C(=O)OCC)C1
[out] 0.31

[in] Item: COc1ccc(C(=Cc2ccc(/C=C/c3ccc(C#N)cc3)cc2)c2ccc(OC)cc2)cc1
[out] 0.03

[in] Item: CCOc1cc(C=C2c3ccccc3-c3ccccc32)c(OCC)cc1C=C1c2ccccc2C=Cc2ccccc21
[out] 0.00012

[in] Item: CCCCCCCCC1(CCCCCCCC)c2cc3c(cc2-c2sc(-c4ccc(/C=C5\SC(=S)N(CC)C5=O)c5nsnc45)cc21)C(CCCCCCCC)(CCCCCCCC)c1cc(-c2ccc(/C=C4\SC(=S)N(CC)C4=O)c4nsnc24)sc1-3
[out] 0.029

[in] Item: COc1ccc(C2=C3C(C)=CC(C)=[N+]3[B-](F)(F)n3c(/C=C/c4ccc(N(C)C)cc4)cc(C)c32)cc1
[out] 0.56

[in] Item: CCOC(=O)C1=CN(c2ccccc2)C=C(C(=O)OCC)C1
[out] 0.2

// provenance: the Deep4Chem optical property database
